test system: HCT-15; test: NCI tumour cell line growth inhibition, 48 h
Parameter Measured: GI50

Study these solved cases before continuing.
> print(dat)
                                   compound  parameter.measured  endpoint.result
1  CC1C2=C(O)CC(C)(C)CC2=NC2=C1C(=O)CC(C)(C)C2 (stereo unspecified)                GI50         > 100 µM
2  Cc1ccc(S(=O)(=O)C(C#N)c2nc3ccccc3nc2-n2ccnc2)cc1 (stereo unspecified)                GI50         > 100 µM
3  Nc1nc2c(c(-c3cccc(Cl)c3)n1)COC/C2=C\c1cccc(Cl)c1                GI50         > 100 µM
4  Cc1cccc(C)c1NC(=O)CCCC(=O)CC(=O)/C=C/c1ccccc1                GI50         > 100 µM
5  CC(=O)NC(CCCN(Cc1ccccc1)C(=O)N(CCCl)N=O)C(=O)NCc1ccccc1 (stereo unspecified)                GI50        > 81.8 µM

Asked: Look up GI50: "CCc1cc2c(cc1C(=O)CCC(=O)O)CC1(C2)Cc2cc(CC)c(C(=O)CCC(=O)O)cc2C1"
Given back: > 100 µM
